assay: Liver microsome stability; type: in vitro ADME, human; conditions: amount of substrate remaining; compound 1 μM, 30 minutes, 37° C., NADPH
Please respond with True when measured Human (%) is strictly beneath 80%, and with False in all other cases.

{"mol-smiles": "COc1cc(NN=C(C#N)C#N)ccc1OCc1cccnn1", "answer-label": "False"}
{"mol-smiles": "Cc1cc(NN=C(C#N)C#N)ccc1OCc1nc2ccccc2s1", "answer-label": "True"}
{"mol-smiles": "Cc1cc(NN=C(C#N)C#N)ccc1OCc1ccc(C(F)(F)F)cc1", "answer-label": "True"}

Switching to the query record.
Consider the compound `N#CC(C#N)=NNc1ccc(NC(=O)c2ccoc2)nc1` . Is its Human (%) strictly less than 80%?
False

====

// reported CYP3A4 per item
target: CYP3A4 (Homo sapiens); construct: human liver microsomes (0.25 mg/mL); from tissue; host or cells: human liver microsomes; assay: Inhibitory effect on CYP coenzyme activity, human liver microsomes; type: in vitro ADME; conditions: compound 10 μM; human liver microsomes 0.25 mg/mL; substrate midazolam; 15 minutes
Sequence (P08684 whole entry): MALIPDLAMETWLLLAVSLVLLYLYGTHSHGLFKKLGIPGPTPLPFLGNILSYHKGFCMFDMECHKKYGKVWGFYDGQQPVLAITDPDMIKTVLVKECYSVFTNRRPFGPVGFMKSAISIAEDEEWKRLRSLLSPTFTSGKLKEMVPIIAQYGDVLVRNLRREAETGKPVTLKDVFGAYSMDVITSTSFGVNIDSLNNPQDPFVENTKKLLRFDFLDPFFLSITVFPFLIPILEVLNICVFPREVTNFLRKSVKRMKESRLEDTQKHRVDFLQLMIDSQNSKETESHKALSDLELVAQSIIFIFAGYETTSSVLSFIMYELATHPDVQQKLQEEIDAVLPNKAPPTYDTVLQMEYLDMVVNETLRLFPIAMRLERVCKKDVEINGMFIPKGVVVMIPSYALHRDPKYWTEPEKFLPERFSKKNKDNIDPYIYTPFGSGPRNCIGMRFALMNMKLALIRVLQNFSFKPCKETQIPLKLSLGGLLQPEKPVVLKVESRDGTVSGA
Could you keep your reply to the number by itself?

# example entries with known answers
{"mol-smiles": "Cc1cncc(NC(=O)c2ccc(NN=C(C#N)C#N)cc2)n1", "CYP3A4": 85.5}
{"mol-smiles": "Cc1cc(NN=C(C#N)C#N)ccc1OCc1cccnc1", "CYP3A4": 22}
{"mol-smiles": "Cc1cnc(C(=O)Nc2ccc(NN=C(C#N)C#N)c(C)c2)cn1", "CYP3A4": 62.2}
{"mol-smiles": "Cc1cc(NN=C(C#N)C#N)ccc1OCc1cc[nH]n1", "CYP3A4": 88}

So what's the measured CYP3A4 for this one? `COc1cc(NN=C(C#N)C#N)ccc1OCc1cnc(C)cn1`
73.3

So what's the measured CYP3A4 for this one? `N#CC(C#N)=NNc1ccc(NC(=O)c2cccs2)nc1`
95.2

So what's the measured CYP3A4 for this one? `N#CC(C#N)=NNc1ccc(OCc2cn[nH]c2)cc1`
84.8

So what's the measured CYP3A4 for this one? `N#CC(C#N)=NNc1ccc(OCc2ncccn2)cc1`
88.9

====

molecular target: CYP1A2 (Homo sapiens, UniProt P05177); construct: human liver microsomes (0.25 mg/mL); from tissue; host or cells: human liver microsomes; test: Inhibitory effect on CYP coenzyme activity, human liver microsomes; format: in vitro ADME; settings: compound 10 μM; human liver microsomes 0.25 mg/mL; substrate phenacetin; 15 minutes
Sequence (P05177 whole entry): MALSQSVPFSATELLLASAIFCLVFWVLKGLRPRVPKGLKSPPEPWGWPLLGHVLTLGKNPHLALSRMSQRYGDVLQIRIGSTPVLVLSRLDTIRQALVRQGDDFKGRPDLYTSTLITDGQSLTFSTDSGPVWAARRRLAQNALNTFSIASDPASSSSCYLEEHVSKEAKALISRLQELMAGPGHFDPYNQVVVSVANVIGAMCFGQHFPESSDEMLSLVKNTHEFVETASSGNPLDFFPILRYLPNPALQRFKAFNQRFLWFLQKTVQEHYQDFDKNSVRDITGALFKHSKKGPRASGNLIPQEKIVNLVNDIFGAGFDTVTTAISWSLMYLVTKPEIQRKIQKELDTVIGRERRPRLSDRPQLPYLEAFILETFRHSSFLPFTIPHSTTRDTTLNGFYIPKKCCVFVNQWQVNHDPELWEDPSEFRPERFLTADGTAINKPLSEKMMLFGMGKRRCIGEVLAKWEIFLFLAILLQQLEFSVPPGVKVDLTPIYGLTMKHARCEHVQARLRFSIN
assay-metric: CYP1A2
Could you keep your reply to the number by itself?

{"compound": "Cc1cc(NN=C(C#N)C#N)ccc1OCc1cscn1", "measured-on": "CYP1A2 (Homo sapiens, UniProt P05177)", "assay-metric": "CYP1A2", "measured-value": 75.5}
{"compound": "COc1cc(NN=C(C#N)C#N)ccc1C(=O)Nc1cnc(C)cn1", "measured-on": "CYP1A2 (Homo sapiens, UniProt P05177)", "assay-metric": "CYP1A2", "measured-value": 78.4}
{"compound": "Cc1cnc(NC(=O)c2ccc(NN=C(C#N)C#N)cc2)cn1", "measured-on": "CYP1A2 (Homo sapiens, UniProt P05177)", "assay-metric": "CYP1A2", "measured-value": 95.5}

So what's the measured CYP1A2 for this one? `N#CC(C#N)=NNc1ccc(NC(=O)c2ccc(C(F)(F)F)cc2)nc1`
76.8

So what's the measured CYP1A2 for this one? `COc1cc(NN=C(C#N)C#N)ccc1OCc1ccccc1`
67.9

So what's the measured CYP1A2 for this one? CC(Oc1ccc(NN=C(C#N)C#N)cc1)c1cccnc1 (stereo not shown)
96.7

So what's the measured CYP1A2 for this one? `Cc1cnc(COc2ccc(NN=C(C#N)C#N)cc2)cn1`
97.4

So what's the measured CYP1A2 for this one? `Cc1cnc(C(=O)Nc2ccc(NN=C(C#N)C#N)cn2)cn1`
80.7

====

assay: Liver microsome stability; assay type: in vitro ADME, rat; conditions: amount of substrate remaining; compound 1 μM, 30 minutes, 37° C., NADPH
Grouping key: Rat (%). Bins: bottom bin: < 50%; middle bin: ≥ 50% and < 80%; top bin: ≥ 80%

// known answers, use as guide
{"mol-smiles": "N#CC(C#N)=NNc1ccc(Oc2ccccc2)nc1", "answer-label": "middle bin"}
{"mol-smiles": "Cc1cc(NN=C(C#N)C#N)ccc1OCc1ccc(C(F)(F)F)cc1", "answer-label": "top bin"}
{"mol-smiles": "Cc1cc(NN=C(C#N)C#N)ccc1OCc1nc2ccccc2o1", "answer-label": "middle bin"}
{"mol-smiles": "Cc1cc(NN=C(C#N)C#N)ccc1OCc1cnccn1", "answer-label": "top bin"}
{"mol-smiles": "Cc1cc(NN=C(C#N)C#N)ccc1OCc1cccnc1", "answer-label": "top bin"}
{"mol-smiles": "COc1cc(NN=C(C#N)C#N)ccc1C(=O)Nc1cnc(C)cn1", "answer-label": "top bin"}
{"mol-smiles": "N#CC(C#N)=NNc1ccc(NC(=O)c2cccs2)nc1", "answer-label": "middle bin"}
{"mol-smiles": "Cc1cc(NN=C(C#N)C#N)ccc1OCc1cscn1", "answer-label": "middle bin"}
{"mol-smiles": "Cc1cccc(C(=O)Nc2ccc(NN=C(C#N)C#N)cn2)c1F", "answer-label": "bottom bin"}
{"mol-smiles": "Cc1cc(NN=C(C#N)C#N)ccc1OCc1ncccn1", "answer-label": "middle bin"}

Bin this entry: `COc1cc(NN=C(C#N)C#N)ccc1OCc1cc2ccccc2s1`
bottom bin

Bin this entry: `N#CC(C#N)=NNc1ccc(NC(=O)c2cccc(C(F)(F)F)c2)nc1`
bottom bin

Bin this entry: `COc1cc(NN=C(C#N)C#N)ccc1OCc1cccs1`
middle bin

Bin this entry: `COc1cc(NN=C(C#N)C#N)ccc1OCc1cc[nH]n1`
bottom bin

Bin this entry: `N#CC(C#N)=NNc1ccc(NC(=O)c2ccc(F)cc2)nc1`
middle bin

Bin this entry: `Cc1cnc(COc2ccc(NN=C(C#N)C#N)cc2C)cn1`
top bin

Bin this entry: `Cc1ccc(NC(=O)c2ccc(NN=C(C#N)C#N)cn2)cn1`
top bin

Bin this entry: `Cc1cc(NN=C(C#N)C#N)ccc1OCc1nc2ccccc2s1`
bottom bin

Bin this entry: `COc1cc(NN=C(C#N)C#N)ccc1OCc1nc2ccccc2[nH]1`
middle bin

Bin this entry: `COc1cc(NN=C(C#N)C#N)ccc1OCc1cccnn1`
bottom bin

Bin this entry: `COc1cc(NN=C(C#N)C#N)ccc1OCc1cnn(C)c1`
middle bin

Bin this entry: `Cc1cnc(NC(=O)c2ccc(NN=C(C#N)C#N)cc2)cn1`
top bin

Bin this entry: `COc1cc(NN=C(C#N)C#N)ccc1OCc1nc2ccccc2o1`
bottom bin

Bin this entry: `N#CC(C#N)=NNc1ccc(NC(=O)c2ccc(C(F)(F)F)cc2)nc1`
bottom bin

Bin this entry: `Cc1cnc(C(=O)Nc2ccc(NN=C(C#N)C#N)cn2)cn1`
middle bin

Bin this entry: `Cc1cnc(C(=O)Nc2ccc(NN=C(C#N)C#N)c(C)c2)cn1`
top bin

Bin this entry: `Cc1cc(NN=C(C#N)C#N)ccc1OCc1nc2ccccc2[nH]1`
bottom bin

====

test system: Tau-BiFC cells; assay: Cell viability (cytotoxicity) in tau-BiFC cells, count of stained nuclei; assay type: cell-based; conditions: compound 10 μM; Forskolin-only group = 100% cell viability
assay-metric: Cell viability (% @10 μM) (%)
Write the number in % without appending the unit.

# example entries with known answers
{"mol-smiles": "Cc1cncc(NC(=O)c2ccc(NN=C(C#N)C#N)cn2)n1", "unit-descriptor": "%", "measured-value": 115.2}
{"mol-smiles": "N#CC(C#N)=NNc1ccc(Oc2ccc(C(F)(F)F)cn2)cc1", "unit-descriptor": "%", "measured-value": 43.7}
{"mol-smiles": "Cc1ccc(NC(=O)c2ccc(NN=C(C#N)C#N)cn2)cn1", "unit-descriptor": "%", "measured-value": 110.6}
{"mol-smiles": "Cc1cc(NN=C(C#N)C#N)ccc1Oc1ccncc1", "unit-descriptor": "%", "measured-value": 115.7}
{"mol-smiles": "N#CC(C#N)=NNc1ccc(OCc2nc3ccccc3[nH]2)cc1", "unit-descriptor": "%", "measured-value": 133.2}

Value wanted: Cell viability (% @10 μM) (Tau-BiFC cells) of entry `N#CC(C#N)=NNc1ccc(OCCc2ccccc2)nc1`
39.4

Value wanted: Cell viability (% @10 μM) (Tau-BiFC cells) of entry `N#CC(C#N)=NNc1ccc(Oc2ccccc2F)cc1`
66.5

Value wanted: Cell viability (% @10 μM) (Tau-BiFC cells) of entry `COc1ccc(NC(=O)c2ccc(NN=C(C#N)C#N)cn2)cc1`
97.9

Value wanted: Cell viability (% @10 μM) (Tau-BiFC cells) of entry `N#CC(C#N)=NNc1ccc(Oc2ccc(C#N)cc2)cc1`
39.4

Value wanted: Cell viability (% @10 μM) (Tau-BiFC cells) of entry `N#CC(C#N)=NNc1ccc(NS(=O)(=O)c2cccnc2)nc1`
116.9

Value wanted: Cell viability (% @10 μM) (Tau-BiFC cells) of entry `N#CC(C#N)=NNc1ccc(Oc2cncnc2)c(F)c1`
126.4

Value wanted: Cell viability (% @10 μM) (Tau-BiFC cells) of entry `N#CC(C#N)=NNc1ccc(NC(=O)c2ccccc2C(F)(F)F)nc1`
125.8
